target: T1, human GLP-1 receptor (human, UniProt P43220 24-463); assay: SPA displacement of [125I]GLP-1(7-36)NH2 from hGLP-1R BHK membranes
T1 construct: whole, on cells; reporter assay on whole cells
*1 amine or outer side, *2 acyl side, *3 side chain or, on linkers, in order; H or OH if unused. Where no end group is shown, it is not given here. Side-chain parts run from the residue outwards. [ ]: non-standard residue; d: D form. The star is where a group is joined. C18 diacid = O=C(O)CCCCCCCCCCCCCCCCC(=O)*; γGlu = O=C(O)[C@H](CCC(=O)[*:2])N[*:1]; Desaminohistidyl = O=C(CCc1c[nH]cn1)*; Ac4c = NC1(C(=O)O)CCC1; AEEA = NCCOCCOCC(=O)O; Aib = CC(C)(N)C(=O)O
measuredParameter: IC50 (nM)
# value in nM; strip the unit string

// below: answered binders
[Desaminohistidyl][Aib]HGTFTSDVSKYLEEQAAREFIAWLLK([Gly-Ser-Glu-Gly-Ser-γGlu-γGlu-C18 diacid])T-NH2: 0.4
[Desaminohistidyl]GHGTFTSDVSRYLEEQAAREFIAWLLK([Gly-Ser-Glu-Gly-Ser-γGlu-γGlu-C18 diacid])T-NH2: 3.2

Can you look up the measured IC50 of [Desaminohistidyl][Aib]HGTFTSDVSRYLEEQAARK([AEEA-AEEA-γGlu-γGlu-γGlu-C18 diacid])FIAWLLR for me? 2.9

Param item: [Desaminohistidyl][Ac4c]HGTFTSDVSKYLEEQAAREFIAWLLKK([Gly-Ser-Glu-Gly-Ser-γGlu-γGlu-C18 diacid])-NH2 0.1
